- EXPERIMENT NOTES: Plasma clearance in rat
- Format: ADME, organism-based
PROPERTY LABEL: clearance

Some compounds with known clearance results, for comparison:
# TEST SMILES, RECORDED MEASUREMENT
measured = [
    ("O=C(Nc1ccccc1Br)Nc1ccc(Cl)c(Cl)c1O", "73.6 mL/min/kg"),
    ("O=C(Nc1ccc(Cl)cc1O)Nc1ccccc1Br", "323 mL/min/kg"),
    ("NS(=O)(=O)c1c(Cl)ccc(NC(=O)Nc2ccccc2Br)c1O", "16.1 mL/min/kg"),
    ("CN(C)S(=O)(=O)c1c(Cl)ccc(NC(=O)Nc2ccccc2Br)c1O", "23.4 mL/min/kg"),
    ("NC(=O)c1c(Cl)ccc(NC(=O)Nc2ccccc2Br)c1O", "105 mL/min/kg"),
]

Shifting focus to the compound that follows.
Entry under test: Cl.NCc1c(Cl)ccc(NC(=O)Nc2ccccc2Br)c1O . Its clearance was 104 mL/min/kg

The reported measurements were obtained from ChEMBL document CHEMBL1137097.
